Each item that follows carries a reported % binding.
Molecular target: T1, RSV F A G446E (RSV A, strain A2, UniProt P03420 26-574)
T1 construct: whole, on cells
Test: FACS, % binding to RSV F A variants
Assay Metric: % binding (%)

>>> observed_measurement("MPK201-v4.1 (antibody, V domains shown) VH: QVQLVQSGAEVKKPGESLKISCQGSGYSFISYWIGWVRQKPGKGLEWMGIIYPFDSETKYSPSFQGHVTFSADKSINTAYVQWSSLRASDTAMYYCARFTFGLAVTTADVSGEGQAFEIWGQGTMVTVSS VL: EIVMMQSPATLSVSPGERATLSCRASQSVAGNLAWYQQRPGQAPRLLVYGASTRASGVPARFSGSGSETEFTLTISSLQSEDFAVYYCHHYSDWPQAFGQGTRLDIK")
18
>>> observed_measurement("MPK65-v2-v1.2 (antibody, V domains shown) VH: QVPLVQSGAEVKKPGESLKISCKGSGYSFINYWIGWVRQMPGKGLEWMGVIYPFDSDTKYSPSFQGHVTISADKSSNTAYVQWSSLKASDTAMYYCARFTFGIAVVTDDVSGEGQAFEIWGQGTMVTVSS VL: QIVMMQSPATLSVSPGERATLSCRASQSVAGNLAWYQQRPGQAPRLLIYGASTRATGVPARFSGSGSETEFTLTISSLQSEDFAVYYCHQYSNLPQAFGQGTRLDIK")
25.4
>>> observed_measurement("MPK201-v1.2 (antibody, V domains shown) VH: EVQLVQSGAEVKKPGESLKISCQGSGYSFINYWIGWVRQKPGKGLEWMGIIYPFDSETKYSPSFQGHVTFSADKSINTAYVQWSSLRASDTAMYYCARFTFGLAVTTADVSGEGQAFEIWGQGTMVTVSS VL: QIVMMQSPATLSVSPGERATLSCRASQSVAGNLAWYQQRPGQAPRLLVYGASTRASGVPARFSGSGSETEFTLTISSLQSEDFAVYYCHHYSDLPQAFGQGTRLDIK")
29
